// provenance: patent US9029370B2

Known Ki of a selection of compounds
Target: rat TAAR1 (Rattus norvegicus (Rat), UniProt Q923Y9)
Sequence (Q923Y9 whole entry): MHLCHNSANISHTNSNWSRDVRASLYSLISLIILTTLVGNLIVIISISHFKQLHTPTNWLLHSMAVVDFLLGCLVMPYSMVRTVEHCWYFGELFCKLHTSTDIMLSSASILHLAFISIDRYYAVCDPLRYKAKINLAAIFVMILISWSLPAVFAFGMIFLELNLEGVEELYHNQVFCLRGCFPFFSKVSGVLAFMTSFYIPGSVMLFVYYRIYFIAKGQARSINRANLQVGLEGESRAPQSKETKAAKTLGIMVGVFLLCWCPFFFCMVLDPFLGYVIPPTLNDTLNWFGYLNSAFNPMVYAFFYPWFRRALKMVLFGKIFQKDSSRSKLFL
Experiment: Radioligand binding assay on rat TAAR1
Settings: rat TAAR1, HEK-293 membranes; second value of the pair (line below); read-out: Ki (μM) mouse/rat
Experimental: For the construction of expression plasmids the coding sequences of human, rat and mouse TAAR 1 were amplified from genomic DNA essentially as described by Lindemann et al.. The Expand High Fidelity PCR System (Roche Diagnostics) was used with 1.5 mM Mg^2+ and purified PCR products were cloned into pCR2.1-TOPO cloning vector (Invitrogen) following the instructions of the manufacturer. […]
Where a name gives a salt, the structure may show the parent alone.
# value in µM; strip the unit string

>>> quantitative_readout("O=C(Nc1ccc(Cl)nc1)Nc1ccc(C2CNCCO2)cc1Cl (racemic)")
0.0039

// map Cc1cc(C(=O)Nc2ccc([C@H]3CNCCO3)c(Cl)c2)cc(C(N)=O)n1 [Example 118, hydrochloride] to recorded Ki (system: rat TAAR1 (Rattus norvegicus (Rat), UniProt Q923Y9))
0.264

// map O=C(Nc1ccc([C@H]2CNCCO2)c(F)c1)c1cnn(-c2cc(C(F)(F)F)ncn2)c1 [Example 129, hydrochloride] to recorded Ki (system: rat TAAR1 (Rattus norvegicus (Rat), UniProt Q923Y9))
0.0025

// map N#Cc1cc(Cl)cc(C(=O)Nc2ccc([C@H]3CNCCO3)c(F)c2)n1 [Example 133, hydrochloride] to recorded Ki (system: rat TAAR1 (Rattus norvegicus (Rat), UniProt Q923Y9))
0.018

// map `O=C(Nc1ccc(Cl)cn1)Nc1ccc([C@H]2CNCCO2)cc1Cl` to recorded Ki (system: rat TAAR1 (Rattus norvegicus (Rat), UniProt Q923Y9))
0.003

* * *

Target: mouse TAAR1 (Mus musculus (Mouse))
Sequence (Q923Y8 whole entry): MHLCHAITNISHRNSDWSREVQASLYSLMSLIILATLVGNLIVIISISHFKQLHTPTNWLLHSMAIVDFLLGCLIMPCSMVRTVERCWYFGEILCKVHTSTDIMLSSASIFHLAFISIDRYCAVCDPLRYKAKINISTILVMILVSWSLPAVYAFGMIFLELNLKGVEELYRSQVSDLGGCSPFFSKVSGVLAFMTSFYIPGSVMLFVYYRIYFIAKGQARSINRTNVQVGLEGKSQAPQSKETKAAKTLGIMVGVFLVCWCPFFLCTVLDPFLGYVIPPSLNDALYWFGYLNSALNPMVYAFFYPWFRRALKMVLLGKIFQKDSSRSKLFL
Experiment: Radioligand binding assay on mouse TAAR1
Conditions: mouse TAAR1, HEK-293 membranes; first value of the pair (before the slash); read-out: Ki (μM) mouse/rat
Structures can show the parent of a compound that is named as a salt.
MEASURE: log10 of Ki (log10 of the value in µM)
Each number you see is log10 of Ki, and the unit inside the log is µM.

Below: 4 compounds and their reported log10 of Ki.
>>> quantitative_readout("O=C(Nc1ccc(Cl)nc1)Nc1ccc([C@@H]2CNCCO2)cc1F")
-2.59
>>> quantitative_readout("O=C(Nc1ccc(C(F)(F)F)cn1)Nc1ccc([C@@H]2CNCCO2)cc1Cl")
-2.52
>>> quantitative_readout("O=C(Nc1ccc([C@H]2CNCCO2)cc1F)c1cnn(-c2cccc(OC(F)F)c2)c1")
-2.85
>>> quantitative_readout("N#Cc1cc(C2CNCCO2)ccc1NC(=O)c1ccn(-c2ccc(F)cc2)n1 (racemic)")
-1.85

Reported log10 of Ki for `N#Cc1ccc(OC(F)F)c(NC(=O)Nc2ccc([C@H]3CNCCO3)cc2Cl)c1` : what is it?
-2.66

Reported log10 of Ki for N#Cc1ccc(-n2cc(C(=O)Nc3ccc([C@H]4CNCCO4)c(F)c3)cn2)c(F)c1 [Example 108, hydrochloride] : what is it?
-2.27

Reported log10 of Ki for `O=C(Nc1ccc([C@H]2CNCCO2)cc1F)c1cnn(-c2ccc3c(c2)OC(F)(F)O3)c1` : what is it?
-2.89

Reported log10 of Ki for CCOc1cc(C(=O)Nc2ccc([C@@H]3CNCCO3)c(F)c2)ccn1 [Example 84, hydrochloride] : what is it?
-2.44

Reported log10 of Ki for `N#Cc1cc(F)cc(NC(=O)Nc2ccc([C@@H]3CNCCO3)cc2F)c1` : what is it?
-2.74

Reported log10 of Ki for Cc1cc(C(=O)Nc2ccc([C@H]3CNCCO3)cc2Cl)cc(C(N)=O)n1 [Example 122, hydrochloride] : what is it?
-0.85

Reported log10 of Ki for `O=C(Nc1ccc([C@H]2CNCCO2)cc1Cl)c1ccn(-c2ccc(F)cc2)n1` : what is it?
-2.77

Reported log10 of Ki for `O=C(Nc1ccc([C@H]2CNCCO2)cc1F)c1ccn(-c2ccc(F)cc2)n1` : what is it?
-2.96

Reported log10 of Ki for COc1ccc(C#N)cc1NC(=O)Nc1ccc([C@H]2CNCCO2)cc1F [Example 39, hydrochloride] : what is it?
-2.52

Reported log10 of Ki for `O=C(Nc1ccc(C(F)(F)F)nc1)Nc1ccc([C@@H]2CNCCO2)cc1Cl` : what is it?
-2.68

Reported log10 of Ki for `COc1ccc(C#N)cc1NC(=O)Nc1ccc([C@H]2CNCCO2)cc1Br` : what is it?
-2.42

Reported log10 of Ki for `O=C(NCc1cccc(OC(F)F)c1)Nc1ccc([C@@H]2CNCCO2)cc1F` : what is it?
-3.00

Reported log10 of Ki for CCOc1ccc(C(=O)Nc2ccc([C@H]3CNCCO3)c(Cl)c2)cn1 [Example 95, hydrochloride] : what is it?
-2.48

Reported log10 of Ki for CCOc1cc(C(=O)Nc2ccc([C@H]3CNCCO3)c(Cl)c2)ccn1 [Example 94, hydrochloride] : what is it?
-2.48

Reported log10 of Ki for CCOc1cc(C(=O)Nc2ccc([C@H]3CNCCO3)c(F)c2)ccn1 [Example 88, hydrochloride] : what is it?
-2.47

Reported log10 of Ki for `Cc1cc([C@@H]2CNCCO2)ccc1NC(=O)Nc1ccc(Cl)nc1` : what is it?
-2.37

Reported log10 of Ki for N#Cc1ccc(OC(F)F)c(NC(=O)Nc2ccc([C@@H]3CNCCO3)cc2F)c1 [Example 72, hydrochloride] : what is it?
-2.72

Reported log10 of Ki for Cc1cc(C(=O)Nc2ccc([C@H]3CNCCO3)cc2Cl)cc(C#N)n1 [Example 123, hydrochloride] : what is it?
-1.38

Reported log10 of Ki for `Cn1nc(-c2ccccc2)cc1C(=O)Nc1ccc([C@H]2CNCCO2)cc1F` : what is it?
-1.82
